Entry source: patent US20140329863A1

- method_description: Multidose (three-day) pharmacokinetics in liquid diet in FVB mice
- condition_notes: FVB, mouse, in vivo, 80 mg/kg, Brain Concentration (Css), three-day dosing in liquid diet, brain

smiles_str: Cc1ccc(Nc2nc(-c3cc(-c4ccccc4)no3)cs2)nc1
concentration at 3 days / nM: 5390
--
smiles_str: Cc1ccnc(Nc2nc(-c3ccncc3)cs2)c1
concentration at 3 days / nM: 760
--
smiles_str: Cc1cccc(Nc2nc(-c3cc4ccccc4o3)cs2)n1
concentration at 3 days / nM: 2700
--
smiles_str: COc1ccc(-c2csc(Nc3cc4ccccc4cn3)n2)cc1OC
concentration at 3 days / nM: 60
--
smiles_str: c1ccc2cc(Nc3nc(-c4ccncc4)cs3)ncc2c1
concentration at 3 days / nM: 80
--
smiles_str: c1ccc2cc(Nc3nc(-c4cc5ccccc5o4)cs3)ncc2c1
concentration at 3 days / nM: 190
--
smiles_str: Cc1cccc(Nc2nc(-c3ccc(-c4ccccc4)cc3)cs2)n1
concentration at 3 days / nM: 19300

---

- method_description: Multidose (three-day) pharmacokinetics in liquid diet in FVB mice
- condition_notes: FVB, mouse, in vivo, 210 mg/kg, Plasma Concentration (Css), three-day dosing in liquid diet, plasma
measurement_label: concentration at 3 days (µM)

smiles_str: COc1ccc(-c2csc(Nc3ccc4ccccc4n3)n2)cc1OC
measurement_label: concentration at 3 days
result_unit: µM
reading: 0.12

smiles_str: Cc1cccc(Nc2nc(-c3ccc(-c4ccccc4)cc3)cs2)n1
measurement_label: concentration at 3 days
result_unit: µM
reading: 18.9

smiles_str: c1ccc2cc(Nc3nc(-c4cc5ccccc5o4)cs3)ncc2c1
measurement_label: concentration at 3 days
result_unit: µM
reading: 3.06

smiles_str: Cc1ccc(Nc2nc(-c3cc(-c4ccccc4)no3)cs2)nc1
measurement_label: concentration at 3 days
result_unit: µM
reading: 14.2

smiles_str: COc1ccc(-c2csc(Nc3cc4ccccc4cn3)n2)cc1OC
measurement_label: concentration at 3 days
result_unit: µM
reading: 0.14

smiles_str: Cc1cccc(Nc2nc(-c3cc4ccccc4o3)cs2)n1
measurement_label: concentration at 3 days
result_unit: µM
reading: 1.98

smiles_str: Cc1ccnc(Nc2nc(-c3ccncc3)cs2)c1
measurement_label: concentration at 3 days
result_unit: µM
reading: 10.9

---

measurement_label: melting point

compound: COc1ccnc(Nc2nc(-c3cc(-c4ccccc4)no3)cs2)c1 [compound 41]
reading: 177 to 179 °C

compound: COc1ccc(-c2csc(Nc3ccc(C)cn3)n2)c(OC)c1 [IND74]
reading: 157 to 158 °C

compound: c1ccc(-c2cc(-c3csc(Nc4ccccn4)n3)on2)cc1 [compound 42]
reading: 211 to 215 °C

---

- condition_notes: […]

smiles_str: Cc1ccc(Nc2nc(-c3cc(-c4ccccc4)no3)cs2)nc1
hepatic extraction ratio (ER): lower to moderate
//
smiles_str: Cc1ccnc(Nc2nc(-c3ccncc3)cs2)c1
hepatic extraction ratio (ER): higher
//
smiles_str: COc1ccc(-c2csc(Nc3ccc4ccccc4n3)n2)cc1OC
hepatic extraction ratio (ER): lower to moderate
//
smiles_str: c1ccc2cc(Nc3nc(-c4ccncc4)cs3)ncc2c1
hepatic extraction ratio (ER): higher

---

- method_description: Single-dose pharmacokinetics in FVB mice (oral gavage, IV)
- condition_notes: female, FVB, mouse, brain and plasma, po, 10 mg/kg
Parameter: Kp. Scope: all listed entries.

compound: Cc1cccc(Nc2nc(-c3ccc(-c4ccccc4)cc3)cs2)n1 [IND24]
Kp: 2.6
--
compound: Cc1ccnc(Nc2nc(-c3ccc(-c4ccccn4)s3)cs2)c1 [IND81]
Kp: 5.5
--
compound: C(=N\Nc1ccc(-c2cnco2)cc1)/c1ccncc1 [Compound B, reference compound]
Kp: 0.5
--
compound: Cc1cccc(Nc2nc(-c3cc4ccccc4o3)cs2)n1 [IND22]
Kp: 0.5
